# System: KB cells
# runDescription: Cytotoxicity, sulforhodamine B staining, KB
# Assay type: cell-based
# recordedConditions: Homo sapiens, read-out: IC50 KB
pIC50: −log10 of the molar value.
For each of the compounds below, state its pIC50.

Value of measured pIC50 for the entry COc1ccccc1CCNCc1c(N)nc(N)nc1-c1ccccc1 [7 a] : < 4.00

Value of measured pIC50 for the entry COc1ccccc1CCNCc1c(N)nc(N)nc1C1CC1 [7 d] : < 4.00

Value of measured pIC50 for the entry COc1cccc(CCNCc2c(N)nc(N)nc2-c2ccccc2)c1 [7 b] : < 4.00

* * *

For each of the compounds below, state its Ki.

The recorded Ki with HsDHFR (Homo sapiens) for `COc1ccccc1CCNCc1c(N)nc(N)nc1C1CCCCC1` was > 500 µM

The recorded Ki with HsDHFR (Homo sapiens) for `Nc1nc(N)c(CNCCc2ccc(Cl)cc2)c(C2CCCCC2)n1` was > 500 µM

The recorded Ki with HsDHFR (Homo sapiens) for `Nc1nc(N)c(CNCCc2ccccc2F)c(C2CCCCC2)n1` was > 500 µM

The recorded Ki with HsDHFR (Homo sapiens) for `COc1ccc(CCNCc2c(N)nc(N)nc2C2CCCCC2)cc1` was > 500 µM

The recorded Ki with HsDHFR (Homo sapiens) for `Nc1nc(N)c(CNCCc2cccc(Cl)c2)c(C2CCCCC2)n1` was > 250 µM

The recorded Ki with HsDHFR (Homo sapiens) for `Nc1nc(N)c(CNCCc2cccc(F)c2)c(C2CCCCC2)n1` was > 500 µM

* * *

# targetUnderTest: PfDHFR-QM (Plasmodium falciparum, UniProt P13922, I164L/N51I)
# runDescription: DHFR enzyme inhibition assay, quadruple mutant
readoutKind: Ki (nM)
Quick reminder: number only, in nM, skip the unit.

Value of measured Ki for the entry `COc1cccc(CCNCc2c(N)nc(N)nc2C2CC2)c1` : 26

Value of measured Ki for the entry `Nc1nc(N)c(CNCCc2ccccc2Cl)c(C2CC2)n1` : 23

Value of measured Ki for the entry `Nc1nc(N)c(CNCCc2ccc(Cl)cc2Cl)c(C2CCCCC2)n1` : 123

Value of measured Ki for the entry `COc1cccc(CCNCc2c(N)nc(N)nc2C2CCCCC2)c1` : 56

* * *

# targetUnderTest: PfDHFR-WT (Plasmodium falciparum, UniProt P13922, N108S/R59C)
# runDescription: DHFR enzyme inhibition assay, wild type
readoutKind: Ki (nM)
Quick reminder: number only, in nM, skip the unit.

Value of measured Ki for the entry `Nc1nc(N)c(CNCCc2ccc(Cl)cc2)c(C2CC2)n1` : 2.5

Value of measured Ki for the entry `COc1cccc(CCNCc2c(N)nc(N)nc2-c2ccccc2)c1` : 107

Value of measured Ki for the entry `COc1ccc(CCNCc2c(N)nc(N)nc2C2CCCCC2)cc1` : 32

Value of measured Ki for the entry `Nc1nc(N)c(CNCCc2ccccc2Cl)c(C2CC2)n1` : 9.3

Value of measured Ki for the entry `Nc1nc(N)c(CNCCc2ccc(Cl)c(Cl)c2)c(C2CCCCC2)n1` : 9

Value of measured Ki for the entry `Nc1nc(N)c(CNCCc2ccc(Cl)cc2Cl)c(C2CC2)n1` : 2

Value of measured Ki for the entry `Nc1nc(N)c(CNCCc2ccccc2F)c(C2CCCCC2)n1` : 61

Value of measured Ki for the entry `Nc1nc(N)c(CNCCc2ccccc2Cl)c(C2CCCCC2)n1` : 22

Value of measured Ki for the entry `COc1ccc(CCNCc2c(N)nc(N)nc2C2CC2)cc1` : 3.5

Value of measured Ki for the entry `Nc1nc(N)c(CNCCc2ccccc2F)c(C2CC2)n1` : 8.2

Value of measured Ki for the entry `COc1cccc(CCNCc2c(N)nc(N)nc2C2CCCCC2)c1` : 31

Value of measured Ki for the entry `Nc1nc(N)c(CNCCc2ccc(F)cc2)c(C2CCCCC2)n1` : 80

Value of measured Ki for the entry `Nc1nc(N)c(CNCCc2cccc(F)c2)c(C2CCCCC2)n1` : 76

Value of measured Ki for the entry `Nc1nc(N)c(CNCCc2cccc(Cl)c2)c(C2CC2)n1` : 2.5

Value of measured Ki for the entry `Nc1nc(N)c(CNCCc2ccc(Cl)c(Cl)c2)c(C2CC2)n1` : 1.3

Value of measured Ki for the entry `COc1ccccc1CCNCc1c(N)nc(N)nc1C1CCCCC1` : 128

Value of measured Ki for the entry `Nc1nc(N)c(CNCCc2ccc(Cl)cc2Cl)c(C2CCCCC2)n1` : 7

Value of measured Ki for the entry `COc1ccccc1CCNCc1c(N)nc(N)nc1C1CC1` : 15

Value of measured Ki for the entry `COc1ccc(CCNCc2c(N)nc(N)nc2-c2ccccc2)cc1` : 86

Value of measured Ki for the entry `COc1cccc(CCNCc2c(N)nc(N)nc2C2CC2)c1` : 4.4
